assay_summary: antimalarial activity against Dd2 strain (AID 2302)
condition_parameters: P. falciparum Dd2 in RBCs, LDH growth readout, 72 h; at 2 µM; hits give high values
Lab note: compare growth inhibition against 40%. Equal or greater, write y. Smaller, write n.

>>> class("COc1cc(Cc2cnc(N)nc2N)ccc1OCc1ccc(-c2csnn2)cc1")
"n"
>>> class("CC(C)C[C@H](NC(=O)c1ccc(OCCN2CCOCC2)cc1)C(=O)NC(/C=N/N1CCCC1=O)C(C)C (some centres undefined)")
"y"
>>> class("O=c1ccc2ncc(Cl)c3c2n1CC3CN1CCC(NCc2cc3c(cn2)OCCO3)CC1 (centres undefined)")
"n"
>>> class("COC(=O)CCCCCOc1cc(Cc2cnc(N)nc2N)cc(OC)c1OC")
"n"
>>> class("C=CCCCNCC(NCCCNc1cc(=O)c2ccccc2[nH]1)c1cc(Br)cc(Br)c1 (centres undefined)")
"n"
>>> class("O=C(/C=C/c1ccc(Cl)c(Cl)c1)N1CCC(CCN2CCc3[nH]c4ccccc4c3C2)CC1")
"n"
>>> class("CNC(=O)c1ccccc1Nc1nc(Nc2cccnc2)ncc1C")
"y"

# input for lookup
Prompt line: Is growth inhibition at least 40%? Consider `O=C(Nc1cccc(-c2cccc(-c3nc4ccc(F)cc4[nH]3)c2)c1)c1ccoc1`
Response line: n

Origin of measurements: PubChem BioAssay
